Target: human CB1 (Homo sapiens)
Assay: Inhibition of FSK-stimulated cAMP
Type: cell-based
Conditions: HEK293, read-out: E MAX (±SEM), %
MEASURE_NAME: Emax (%)
Write the number in % without appending the unit.

The examples below pair each entry with its known result.
O=C(c1ccc2c(c1)c1ccccc1n2CCN1CCOCC1)c1ccnc2ccccc12: 13.1
Cc1ccc(C(=O)c2ccc3c(c2)c2ccccc2n3CCN2CCOCC2)c2ccccc12: 38.7
O=C(c1ccc2c(c1)c1ccccc1n2CCCCCO)c1cccc2ccccc12: 34.9
O=C(c1ccc2c(c1)c1ccccc1n2CCN1CCOCC1)c1cc2ccccc2o1: 38.5

# next compound below
For the compound O=C(c1ccc2c(c1)c1ccccc1n2CCN1CCOCC1)c1cc2ccccc2[nH]1 , give its measured Emax value.
31.5

----------
Each entry below lists one item and its recorded EC50 value.
Target: human CB1 (Homo sapiens, UniProt P21554)
Sequence (P21554 whole entry): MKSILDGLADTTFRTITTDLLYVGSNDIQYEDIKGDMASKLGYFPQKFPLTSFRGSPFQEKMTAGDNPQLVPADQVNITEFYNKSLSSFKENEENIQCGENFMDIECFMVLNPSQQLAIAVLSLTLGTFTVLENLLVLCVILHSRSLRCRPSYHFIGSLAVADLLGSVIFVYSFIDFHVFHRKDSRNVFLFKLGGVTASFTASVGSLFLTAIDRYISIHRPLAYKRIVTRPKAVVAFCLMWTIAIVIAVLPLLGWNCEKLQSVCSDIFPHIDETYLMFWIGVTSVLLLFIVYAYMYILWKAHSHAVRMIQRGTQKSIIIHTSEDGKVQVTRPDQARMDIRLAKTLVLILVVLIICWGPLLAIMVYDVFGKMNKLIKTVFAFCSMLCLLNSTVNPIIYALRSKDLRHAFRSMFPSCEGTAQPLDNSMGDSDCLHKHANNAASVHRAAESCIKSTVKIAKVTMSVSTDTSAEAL
Test: [35S]GTPγS binding in P2 membranes of HEK293 cells expressing hCB1
Assay type: biochemical
Write the number in nM without appending the unit.

The examples below pair each entry with its known result.
O=C(c1ccc2c(c1)c1ccccc1n2CCN1CCOCC1)c1ccnc2ccccc12 [Compound 157]: 257
O=C(c1ccc2c(c1)c1ccccc1n2CCCCCO)c1cccc2ccccc12 [Compound 045]: 257
Cc1ccc(C(=O)c2ccc3c(c2)c2ccccc2n3CCN2CCOCC2)c2ccccc12 [Compound 141]: 355

For the molecule O=C(c1ccc2c(c1)c1ccccc1n2CCN1CCOCC1)c1cc2ccccc2[nH]1 [Compound 142] , give its measured EC50 value.
6170

----------
Biological target: human CB1 (Homo sapiens, UniProt P21554)
Experiment: Inhibition of FSK-stimulated cAMP
Format: cell-based
Conditions: cAMP inhibition efficacy ranking
MEASURE_NAME: Rank order efficacy
Please reply with the value in numeric form only.

The examples below pair each entry with its known result.
Cc1ccc(C(=O)c2ccc3c(c2)c2ccccc2n3CCN2CCOCC2)c2ccccc12 [Compound 141]: 7
O=C(c1ccc2c(c1)c1ccccc1n2CCN1CCOCC1)c1cc2ccccc2[nH]1 [Compound 142]: 13
O=C(c1ccc2c(c1)c1ccccc1n2CCCCCO)c1cccc2ccccc12 [Compound 045]: 9
O=C(c1ccc2c(c1)c1ccccc1n2CCN1CCOCC1)c1ccnc2ccccc12 [Compound 157]: 14

# next compound below
For the compound O=C(c1ccc2c(c1)c1ccccc1n2CCN1CCOCC1)c1cc2ccccc2o1 [Compound 146] , give its measured Rank order efficacy value.
8

----------
Target: human CB1 (hCB1) receptor (Homo sapiens)
Assay type: binding
Settings: rank of pKi among EG-018 and 13 analogues
Each entry below lists one item and its recorded Rank order (affinity) value.
Please reply with the value in numeric form only.

Cc1ccc(C(=O)c2ccc3c(c2)c2ccccc2n3CCN2CCOCC2)c2ccccc12: 8
O=C(c1ccc2c(c1)c1ccccc1n2CCN1CCOCC1)c1cc2ccccc2o1: 11

For the compound O=C(c1ccc2c(c1)c1ccccc1n2CCCCCO)c1cccc2ccccc12 , give its measured Rank order (affinity) value.
9

For the compound O=C(c1ccc2c(c1)c1ccccc1n2CCN1CCOCC1)c1ccnc2ccccc12 , give its measured Rank order (affinity) value.
13

For the compound O=C(c1ccc2c(c1)c1ccccc1n2CCN1CCOCC1)c1cc2ccccc2[nH]1 , give its measured Rank order (affinity) value.
14

----------
The following are reported pKi results, target or system UniProt:P21554.
The read-out pKi is expressed as -log10 of concentration in moles per litre.

O=C(c1ccc2c(c1)c1ccccc1n2CCN1CCOCC1)c1ccnc2ccccc12: 6.23
O=C(c1ccc2c(c1)c1ccccc1n2CCCCCO)c1cccc2ccccc12: 6.78
Cc1ccc(C(=O)c2ccc3c(c2)c2ccccc2n3CCN2CCOCC2)c2ccccc12: 6.83

# next molecule below
State, for UniProt:P21554, measured pKi of the molecule listed here: O=C(c1ccc2c(c1)c1ccccc1n2CCN1CCOCC1)c1cc2ccccc2o1
6.53
